system: PXR homodimer (NR concentration 270 nM); experiment: PBM binding z-score (relative to random genomic background probes); higher = stronger binding; sequences stand for … in GC…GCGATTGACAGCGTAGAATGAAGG
VALUE_KIND: PBM binding z-score

POLYMER_SEQUENCE	MEASURED
TCTTGTAGATTAACAGGAGGTTAAGAAAGATCGA	0.157
GCTAGTTGGTCAGTAAAAGGTCCCACACCGGTCG	-0.579
GCTTACGGGTCAAAGATTATAGCATGAATAGAAT	-0.0668
CCAGACAGGTGAGAAGGTAACTCACCCTCGATTA	0.219
TCGAGAAGGTTAGGGGCATTCAGAATGGCGTCGA	-0.0334
ATATCTAGGTAACAAGTTCAGTGAAAGAGAGGAC	1.49
CCTAGCGGGCCAATCTGGGTCACTCAAGGCTTGA	-0.579
CGAACTAGGTCATCCAGGACAATGAATACATTGA	2.1

---

test system: PXR homodimer (NR concentration 270 nM); assay: PBM binding z-score (relative to random genomic background probes); higher = stronger binding; sequences stand for … in GC…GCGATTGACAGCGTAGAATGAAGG
VALUE_KIND: PBM binding z-score

POLYMER_SEQUENCE	MEASURED
CCGACTGGGGCAAAGGTTGCCATACTCAGTACGA	-0.135
CGTCCCAGGTCATAGGAGGTCAGTGAAGACAGAT	2.57
GCGAGCAGGCCATTTGGGTCACTCAATGACGGGC	0.189
TGTCAAAGTTTAAAGGTAACGTAAGTATCCACAC	0.39
CCGACTGGGGCAGAAAGGATACCATACCATCCGG	-0.394
GCGACTGGGGCATCAGTAGGTTACCATAACTTAA	-0.313
GCTATTAGTTGAAAGGGCAATCGAATGATTCTCG	0.0729
GCTAGTCGGTCAGTAAAAGGTCACACACCGGTCG	1.05

---

system: RARb homodimer (NR concentration 270 nM); experiment: PBM binding z-score (relative to random genomic background probes); higher = stronger binding; sequences stand for … in GC…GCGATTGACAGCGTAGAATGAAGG
VALUE_KIND: PBM binding z-score

POLYMER_SEQUENCE	MEASURED
TCATATAGGTAAATGGTAGGTGAAAGTCCGATCT	0.917
TAGCCTTGGTCATGGGCCAGTATACCACGCGAAC	0.441
ATTCCAAGGTGATCGTGAGGTCGTTGATACTAAC	1.59

---

Here the recorded PBM binding z-score is given for each entry.
tested on: PXR homodimer (NR concentration 270 nM); experiment: PBM binding z-score (relative to random genomic background probes); higher = stronger binding; sequences stand for … in GC…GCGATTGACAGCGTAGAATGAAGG
VALUE_KIND: PBM binding z-score

POLYMER_SEQUENCE	MEASURED
ATCGAAAGGTAGAGGTGAGTATAGAGAAAGGGAA	0.595
CTCGAAAGGTCGTGCTCAGGTAAGTATACCAAAC	0.482
TAGCCTAGGTCATCCGGGCCAGTATAGTGTCGGC	0.0405
TCATAGAGGTAAAAGGTGAAAGTCGGTGTGGTAA	-0.248
TCAGACATGTGAAGGTAACTCAGGTACGCAGTCG	-0.196
TCTCGGAGTACACGAAGGTCAGAGCTTTCCAGAG	0.814
CGTCCACGGTCATAGGAGGTCAGTGAAGACAGAT	0.754
